Reported pEC50 by item:
# targetOfAssay: T1, recombinant human CTGF protein (R&D Systems, SEQ ID NO: 79) (human, UniProt P29279 27-349)
# T1 construct: Bought; also called human CTGF/CNN2; huCTGF
# T1 sequence: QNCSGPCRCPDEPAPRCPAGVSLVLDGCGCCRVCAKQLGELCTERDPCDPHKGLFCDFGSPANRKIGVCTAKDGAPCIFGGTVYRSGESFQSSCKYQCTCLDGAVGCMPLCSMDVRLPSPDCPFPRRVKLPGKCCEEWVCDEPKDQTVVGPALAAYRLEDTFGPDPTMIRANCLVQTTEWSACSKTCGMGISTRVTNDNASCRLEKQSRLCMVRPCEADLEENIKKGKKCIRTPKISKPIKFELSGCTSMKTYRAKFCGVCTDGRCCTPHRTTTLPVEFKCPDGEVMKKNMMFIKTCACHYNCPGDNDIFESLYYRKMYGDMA
# testMethodNotes: HTRF, 1 nM biotinylated human CTGF
pEC50 here: minus log base 10 of the concentration, concentration in moles per litre.

fusion protein of SEQ ID NO: 73 (designed binder, not shown: C-terminal His-tag) QDSTSDLIPAPPLSKVPLQQNFQDNQFQGKWYVVGLAGNAILREDKYPAKMFATIYELKEDKSYDVTSVRFENKSCVYTSKTFVPGSQPGEFTTGNIKSAPGQTSTLVRVVSTNYNQHAMVFFKHVSQNREFFVITLYGRTKELTSELKENFIRFSKSLGLPENHIVFPVPIDQCIDGGGGGSGGGGSGGGGSQDSTSDLIPAPPLSKVPLQQNFQDNQFQGKWYVVGWAGNVKLREDKQPQKMSATIYELKEDKSYDVTEVVFEQKKCHYIIKTFVPGSQPGEFTAGDIKSPPGYTSSLVRVVSTNYNQHAMVFFKKVSQNREFFWITLYGRTKELTSELKENFIRFSKSLGLPENHIVFPVPIDQCIDG = 9.08

Turning now to a further binder:
Find the recorded pEC50 belonging to fusion protein of SEQ ID NO: 64 (designed binder, not shown: C-terminal His-tag) QDSTSDLIPAPPLSKVPLQQNFQDNQFQGKWYVVGLAGNYRLREDKDPSKMGATIYELKEDKSYDVTQVQFDDKKCLYVIETFVPGSQPGEFTLGAIKSYPGLTSQLVRVVSTNYNQHAMVFVKKVWPNLEYFQIVLYGRTKELTSELKENFIRFSKSLGLPENHIVFPVPIDQCIDGGGGGSGGGGSGGGGSQDSTSDLIPAPPLSKVPLQQNFQDNQFQGKWYVVGLAGNAILREDKQPAKMFATIYELKEDKSYDVTSVRFEAKSCKYTIKTFVPGSQPGEFTAGYIKSAPGQTSTLVRVVSTNYNQHAMVFFKHVTQNREIFVITLYGRTKELTSELKENFIRFSKSLGLPENHIVFPVPIDQCIDG and report it.
9.24
